Source: patent US11197846B2

measurement.protocol: Plasma pharmacokinetics of nabilone and gabapentin after oral PP-01 once daily for four doses (LC-MS/MS), Example 1 clinical study
test.context: human, plasma, oral, mean time to maximal concentration (Tmax), nabilone
measurement.type: Tmax

Ask: Can you look up the measured Tmax of CCCCCCC(C)(C)c1cc(O)c2c(c1)OC(C)(C)C1CCC(=O)CC21 (racemic) [Nabilone] for me?
Reply: ~2.5 h

###

measurement.protocol: Plasma pharmacokinetics of nabilone and gabapentin after oral PP-01 once daily for four doses (LC-MS/MS), Example 1 clinical study
test.context: human, plasma, oral, 600 mg, AUC0-∞, gabapentin 600 mg; Sequence BA; Days 4-5; arithmetic mean
Procedure: A total of 14 eligible healthy volunteers with moderate to severe CUD and no contraindications to nabilone or gabapentin were randomized to receive PP-01 (nabilone and gabapentin; Test) or Placebo, in a 1:1 ratio, from a randomization table at the start of Period 1 (Day −1). […] The following PK assessments were assessed in Periods 1 and 2 on Day 1, Day 2 (trough), Day 4, Day 5 (trough), and Day 8 for nabilone and gabapentin. […]
measurement.type: AUC(0-inf)
Report as: number unit

Ask: Can you look up the measured AUC(0-inf) of "NCC1(CC(=O)O)CCCCC1" for me?
Reply: 63100 ng·h/mL

###

measurement.protocol: Plasma pharmacokinetics of nabilone and gabapentin after oral PP-01 once daily for four doses (LC-MS/MS), Example 1 clinical study
test.context: human, plasma, oral, 600 mg, AUC0-∞, gabapentin 600 mg; Sequence BA; Days 1-2; arithmetic mean
measurement.type: AUC(0-inf) (ng·h/mL)
Give bare numbers, in ng·h/mL.

Ask: Can you look up the measured AUC(0-inf) of NCC1(CC(=O)O)CCCCC1 [Gabapentin, 1-(aminomethyl)cyclohexaneacetic acid] for me?
Reply: 57200

###

measurement.protocol: Plasma pharmacokinetics of nabilone and gabapentin after oral PP-01 once daily for four doses (LC-MS/MS), Example 1 clinical study
test.context: human, plasma, oral, 6 mg, t1/2, nabilone 6 mg; Days 4-5; both sequences; arithmetic mean ± SD
measurement.type: half-life

Ask: Can you look up the measured half-life of CCCCCCC(C)(C)c1cc(O)c2c(c1)OC(C)(C)C1CCC(=O)CC21 (racemic) for me?
Reply: 9.9 h

###

measurement.protocol: Plasma pharmacokinetics of nabilone and gabapentin after oral PP-01 once daily for four doses (LC-MS/MS), Example 1 clinical study
test.context: human, plasma, oral, 600 mg, Cmax, gabapentin 600 mg; Sequence AB; Days 4-5; arithmetic mean
measurement.type: Cmax (ng/mL)
Answers are plain numbers, in ng/mL.

Ask: Can you look up the measured Cmax of "NCC1(CC(=O)O)CCCCC1" for me?
Reply: 7010

###

measurement.protocol: Plasma pharmacokinetics of nabilone and gabapentin after oral PP-01 once daily for four doses (LC-MS/MS), Example 1 clinical study
test.context: human, plasma, oral, 600 mg, Tmax, gabapentin 600 mg; Sequence AB; Days 1-2; arithmetic mean ± SD
measurement.type: Tmax (h)
Numbers only, in h.

Ask: Can you look up the measured Tmax of "NCC1(CC(=O)O)CCCCC1" for me?
Reply: 3.7

###

measurement.protocol: Plasma pharmacokinetics of nabilone and gabapentin after oral PP-01 once daily for four doses (LC-MS/MS), Example 1 clinical study
test.context: human, plasma, oral, 600 mg, AUC0-24, gabapentin 600 mg; Sequence BA; Days 1-2; arithmetic mean
measurement.type: AUC(0-t) (ng·h/mL)
One number for each entry, in ng·h/mL.

Ask: Can you look up the measured AUC(0-t) of "NCC1(CC(=O)O)CCCCC1" for me?
Reply: 53600

###

measurement.protocol: Plasma pharmacokinetics of nabilone and gabapentin after oral PP-01 once daily for four doses (LC-MS/MS), Example 1 clinical study
test.context: human, plasma, oral, 600 mg, Tmax, gabapentin 600 mg; Sequence BA; Days 4-5; arithmetic mean ± SD
measurement.type: Tmax (h)
Give bare numbers, in h.

Ask: Can you look up the measured Tmax of "NCC1(CC(=O)O)CCCCC1" for me?
Reply: 1

###

measurement.protocol: Plasma pharmacokinetics of nabilone and gabapentin after oral PP-01 once daily for four doses (LC-MS/MS), Example 1 clinical study
test.context: human, plasma, oral, 600 mg, Cmax, gabapentin 600 mg; Sequence BA; Days 1-2; arithmetic mean
measurement.type: Cmax (ng/mL)
Numbers only, in ng/mL.

Ask: Can you look up the measured Cmax of NCC1(CC(=O)O)CCCCC1 [Gabapentin, 1-(aminomethyl)cyclohexaneacetic acid] for me?
Reply: 5170

###

measurement.protocol: Plasma pharmacokinetics of nabilone and gabapentin after oral PP-01 once daily for four doses (LC-MS/MS), Example 1 clinical study
test.context: human, plasma, oral, mean t1/2, gabapentin; range across treatment (days, sequence)
measurement.type: half-life

Ask: Can you look up the measured half-life of NCC1(CC(=O)O)CCCCC1 [Gabapentin, 1-(aminomethyl)cyclohexaneacetic acid] for me?
Reply: 5.3 to 6.3 h

###

measurement.protocol: Plasma pharmacokinetics of nabilone and gabapentin after oral PP-01 once daily for four doses (LC-MS/MS), Example 1 clinical study
test.context: human, plasma, oral, 6 mg, Cmax, nabilone 6 mg; Days 1-2; both sequences; arithmetic mean
measurement.type: Cmax (ng/mL)
Numbers only, in ng/mL.

Ask: Can you look up the measured Cmax of CCCCCCC(C)(C)c1cc(O)c2c(c1)OC(C)(C)C1CCC(=O)CC21 (racemic) for me?
Reply: 8.51

###

measurement.protocol: Plasma pharmacokinetics of nabilone and gabapentin after oral PP-01 once daily for four doses (LC-MS/MS), Example 1 clinical study
test.context: human, plasma, oral, 6 mg, AUC0-24, nabilone 6 mg; Days 1-2; both sequences; arithmetic mean
measurement.type: AUC(0-t) (ng·h/mL)
One number for each entry, in ng·h/mL.

Ask: Can you look up the measured AUC(0-t) of CCCCCCC(C)(C)c1cc(O)c2c(c1)OC(C)(C)C1CCC(=O)CC21 (racemic) for me?
Reply: 34.1

###

measurement.protocol: Plasma pharmacokinetics of nabilone and gabapentin after oral PP-01 once daily for four doses (LC-MS/MS), Example 1 clinical study
test.context: human, plasma, oral, 600 mg, Tmax, gabapentin 600 mg; Sequence AB; Days 4-5; arithmetic mean ± SD
measurement.type: Tmax (h)
Give bare numbers, in h.

Ask: Can you look up the measured Tmax of "NCC1(CC(=O)O)CCCCC1" for me?
Reply: 3.3

###

measurement.protocol: Plasma pharmacokinetics of nabilone and gabapentin after oral PP-01 once daily for four doses (LC-MS/MS), Example 1 clinical study
test.context: human, plasma, oral, 6 mg, AUC0-∞, nabilone 6 mg; Days 1-2; both sequences; arithmetic mean
measurement.type: AUC(0-inf)

Ask: Can you look up the measured AUC(0-inf) of CCCCCCC(C)(C)c1cc(O)c2c(c1)OC(C)(C)C1CCC(=O)CC21 (racemic) [Nabilone] for me?
Reply: 35.8 ng·h/mL

###

measurement.protocol: Plasma pharmacokinetics of nabilone and gabapentin after oral PP-01 once daily for four doses (LC-MS/MS), Example 1 clinical study
test.context: human, plasma, oral, 600 mg, Cmax, gabapentin 600 mg; Sequence BA; Days 4-5; arithmetic mean
measurement.type: Cmax
Report as: number unit

Ask: Can you look up the measured Cmax of "NCC1(CC(=O)O)CCCCC1" for me?
Reply: 5510 ng/mL

###

measurement.protocol: Plasma pharmacokinetics of nabilone and gabapentin after oral PP-01 once daily for four doses (LC-MS/MS), Example 1 clinical study
test.context: human, plasma, oral, 600 mg, t1/2, gabapentin 600 mg; Sequence BA; Days 4-5; arithmetic mean
measurement.type: half-life
Report as: number unit

Ask: Can you look up the measured half-life of "NCC1(CC(=O)O)CCCCC1" for me?
Reply: 6.3 h

###

measurement.protocol: Plasma pharmacokinetics of nabilone and gabapentin after oral PP-01 once daily for four doses (LC-MS/MS), Example 1 clinical study
test.context: human, plasma, oral, 600 mg, AUC0-24, gabapentin 600 mg; Sequence AB; Days 4-5; arithmetic mean
measurement.type: AUC(0-t)

Ask: Can you look up the measured AUC(0-t) of NCC1(CC(=O)O)CCCCC1 [Gabapentin, 1-(aminomethyl)cyclohexaneacetic acid] for me?
Reply: 70500 ng·h/mL

###

measurement.protocol: Plasma pharmacokinetics of nabilone and gabapentin after oral PP-01 once daily for four doses (LC-MS/MS), Example 1 clinical study
test.context: human, plasma, oral, mean Tmax, gabapentin; across days and sequences
Description: A total of 14 eligible healthy volunteers with moderate to severe CUD and no contraindications to nabilone or gabapentin were randomized to receive PP-01 (nabilone and gabapentin; Test) or Placebo, in a 1:1 ratio, from a randomization table at the start of Period 1 (Day −1). […] The following PK assessments were assessed in Periods 1 and 2 on Day 1, Day 2 (trough), Day 4, Day 5 (trough), and Day 8 for nabilone and gabapentin. […]
measurement.type: Tmax

Ask: Can you look up the measured Tmax of NCC1(CC(=O)O)CCCCC1 [Gabapentin, 1-(aminomethyl)cyclohexaneacetic acid] for me?
Reply: 3.3 to 4 h

###

measurement.protocol: Plasma pharmacokinetics of nabilone and gabapentin after oral PP-01 once daily for four doses (LC-MS/MS), Example 1 clinical study
test.context: human, plasma, oral, 600 mg, Tmax, gabapentin 600 mg; Sequence BA; Days 1-2; arithmetic mean ± SD
measurement.type: Tmax (h)
Numbers only, in h.

Ask: Can you look up the measured Tmax of "NCC1(CC(=O)O)CCCCC1" for me?
Reply: 3.7
